Taken from patent US12486280B2.

Molecular target: CDK4 (Homo sapiens (Human))
Sequence (P11802 whole entry): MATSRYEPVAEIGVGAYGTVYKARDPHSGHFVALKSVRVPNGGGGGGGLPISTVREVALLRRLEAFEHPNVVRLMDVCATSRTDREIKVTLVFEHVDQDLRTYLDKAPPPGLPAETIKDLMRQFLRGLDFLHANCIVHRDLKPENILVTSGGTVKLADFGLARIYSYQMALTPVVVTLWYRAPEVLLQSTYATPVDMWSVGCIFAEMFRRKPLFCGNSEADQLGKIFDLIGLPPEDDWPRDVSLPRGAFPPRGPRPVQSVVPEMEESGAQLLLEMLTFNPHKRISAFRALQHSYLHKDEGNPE
Sequence (P24385 whole entry partner): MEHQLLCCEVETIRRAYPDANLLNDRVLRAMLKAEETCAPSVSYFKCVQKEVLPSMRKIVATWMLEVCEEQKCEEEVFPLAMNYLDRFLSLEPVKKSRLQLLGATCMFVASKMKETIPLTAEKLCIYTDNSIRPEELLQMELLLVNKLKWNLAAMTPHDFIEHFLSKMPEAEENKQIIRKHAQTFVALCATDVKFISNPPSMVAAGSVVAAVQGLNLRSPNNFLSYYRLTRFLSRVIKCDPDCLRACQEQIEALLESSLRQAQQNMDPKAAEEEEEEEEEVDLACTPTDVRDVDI
Assay: Cdk4 and 6 Enzymatic Inhibition Assay (radiometric 33PanQinase, Ki determination)
Format: biochemical
Measurement label: Ki (nM)
Numbers only, in nM.

Below are some compounds; for each one, tell me its Ki.
1. CCN(CC)CCC1(C)CN(Cc2ccc(Nc3ncc(F)c(-c4cc(F)c5nc(C)n(C(C)C)c5c4)n3)nc2)CCO1 (stereo in doubt)
2. COC(=O)N1CC[C@]2(CN(Cc3ccc(Nc4ncc(F)c(-c5cc(F)c6nc(C)n(C(C)C)c6c5)n4)nc3)CCO2)C1
3. Cc1nc2c(F)cc(-c3nc(Nc4ccc(CN5CCO[C@](C)(CCN6CCCC6)C5)cn4)ncc3F)cc2n1C(C)C
4. Cc1nc2c(F)cc(-c3nc(Nc4ccc(CN5CCC56COC6)cn4)ncc3F)cc2n1C(C)C
5. Cc1nc2c(F)cc(-c3nc(Nc4ccc(CN5CCO[C@](C)(CC(=O)N6CCC6)C5)cn4)ncc3F)cc2n1C(C)C

Result:
2.04
2.95
1.42
1.53
2.64

Below are some compounds; for each one, tell me its Ki.
1. Cc1nc2c(F)cc(-c3nc(Nc4ccc(CN5CCOC6(CCOC6)C5)cn4)ncc3F)cc2n1C(C)C (stereo not shown)
2. Cc1nc2c(F)cc(-c3nc(Nc4ccc(CN5CCO[C@](C)(CCN6CCOCC6)C5)cn4)ncc3F)cc2n1C(C)C

Result:
1. 2.27
2. 1.37

---

Test: Measurement of Compound Metabolic Stability in hepatocytes
Measurement label: half-life at 1 μM (min)
Give bare numbers, in min.

> print(dat)
                                   compound  unit.text  number
1  Cc1nc2c(F)cc(-c3nc(Nc4ccc(CN5CCO[C@](C)(CCN6CC(F)C6)C5)cn4)ncc3F)cc2n1C(C)C        min     8.9
2  CC(=O)N(C)CC[C@]1(C)CN(Cc2ccc(Nc3ncc(F)c(-c4cc(F)c5nc(C)n(C(C)C)c5c4)n3)nc2)CCO1        min    4.24
3  Cc1nc2c(F)cc(-c3nc(Nc4ccc(CN5CCO[C@](C)(CCNCC(F)(F)F)C5)cn4)ncc3F)cc2n1C(C)C        min    15.3

Below are some compounds; for each one, tell me its half-life at 1 μM.
1. CCN1CCN(Cc2ccc(Nc3ncc(F)c(-c4cc(F)c5nc(C)n(C(C)C)c5c4)n3)nc2)CC1 [Abemaciclib MS, Abemaciclib, reference compound]
2. Cc1nc2c(F)cc(-c3nc(Nc4ccc(CN5CCO[C@](C)(CCNC(C)(C)C)C5)cn4)ncc3F)cc2n1C(C)C
3. Cc1nc2c(F)cc(-c3nc(Nc4ccc(CN5CCO[C@]6(CCN(S(C)(=O)=O)C6)C5)cn4)ncc3F)cc2n1C(C)C

Result:
25.7
74.5
4.24

---

Test system: drug-sensitive cell lines of Table 2 (EFM-19, MDA-MB-453, T-47D, ZR-75-1, NCI-H441, OVTOKO, NCI-H1838)
Experiment: Cell Line Growth Retardation Assay, sensitive cohort
Assay type: cell-based, human
Conditions: Homo sapiens, […], geometric mean over sensitive cohort; 6 days growth; read-out: AvgSensIC50
What IC50 was measured for each of the following?
Give bare numbers, in nM.

Here are 3 compounds together with their reported answers.
> print(dat)
                               input.smiles  number
1  Cc1nc2c(F)cc(-c3nc(Nc4ccc(CN5CCO[C@](C)(CCN6CCC6)C5)cn4)ncc3F)cc2n1C(C)C      50
2  COC1(C)CN(CC[C@]2(C)CN(Cc3ccc(Nc4ncc(F)c(-c5cc(F)c6nc(C)n(C(C)C)c6c5)n4)nc3)CCO2)C1      90
3  Cc1nc2c(F)cc(-c3nc(Nc4ccc(CN5CCO[C@](C)(CC(=O)N6CC(F)(F)C6)C5)cn4)ncc3F)cc2n1C(C)C     260

--- query ---
Entry "Cc1nc2c(F)cc(-c3nc(Nc4ccc(CN5CCO[C@](C)(CC(=O)N6CCC6)C5)cn4)ncc3F)cc2n1C(C)C" — recorded IC50 = 340
